- study_system: feline FcRn complex (FcRn-α subunit and β-microglobulin), biotin labeled (feline)
- test_name: SPR, pH 7.4
property_label: Kd (nM)
Give just the number in nM; leave the unit off.

Example binders with recorded Kd:
feline IgG1a Q311W/L314K (antibody, part only; not given: Variable domains, not shown: another chain or arm of the molecule) constant: ASTTAPSVFPLAPSCGTTSGATVALACLVLGYFPEPVTVSWNSGALTSGVHTFPAVLQASGLYSLSSMVTVPSSRWLSDTFTCNVAHPPSNTKVDKTVRKTDHPPGPKPCDCPKCPPPEMLGGPSIFIFPPKPKDTLSISRTPEVTCLVVDLGPDDSDVQITWFVDNTQVYTAKTSPREEQFNSTYRVVSVLPILHWDWKKGKEFKCKVNSKSLPSPIERTISKAKGQPHEPQVYVLPPAQEELSRNKVSVTCLIKSFHPPDIAVEWEITGQPEPENNYRTTPPQLDSDGTYFVYSKLSVDRSHWQRGNTYTCSVSHEALHSHHTQKSLTQSPGK
55.8
feline IgG1a A431K (antibody, part only; not given: variable domains and light chain, not shown: another chain or arm of the molecule) constant: ASTTAPSVFPLAPSCGTTSGATVALACLVLGYFPEPVTVSWNSGALTSGVHTFPAVLQASGLYSLSSMVTVPSSRWLSDTFTCNVAHPPSNTKVDKTVRKTDHPPGPKPCDCPKCPPPEMLGGPSIFIFPPKPKDTLSISRTPEVTCLVVDLGPDDSDVQITWFVDNTQVYTAKTSPREEQFNSTYRVVSVLPILHQDWLKGKEFKCKVNSKSLPSPIERTISKAKGQPHEPQVYVLPPAQEELSRNKVSVTCLIKSFHPPDIAVEWEITGQPEPENNYRTTPPQLDSDGTYFVYSKLSVDRSHWQRGNTYTCSVSHEKLHSHHTQKSLTQSPGK
9.39
feline IgG1a S252R/S428L/S434F (antibody, part only; not given: Variable domains, not shown: another chain or arm of the molecule) constant: ASTTAPSVFPLAPSCGTTSGATVALACLVLGYFPEPVTVSWNSGALTSGVHTFPAVLQASGLYSLSSMVTVPSSRWLSDTFTCNVAHPPSNTKVDKTVRKTDHPPGPKPCDCPKCPPPEMLGGPSIFIFPPKPKDTLRISRTPEVTCLVVDLGPDDSDVQITWFVDNTQVYTAKTSPREEQFNSTYRVVSVLPILHQDWLKGKEFKCKVNSKSLPSPIERTISKAKGQPHEPQVYVLPPAQEELSRNKVSVTCLIKSFHPPDIAVEWEITGQPEPENNYRTTPPQLDSDGTYFVYSKLSVDRSHWQRGNTYTCSVLHEALHFHHTQKSLTQSPGK
774

Continue with the binder presented below.
Would you kindly share the measured Kd for feline IgG1a D399V (antibody, part only; not given: Variable domains, not shown: another chain or arm of the molecule) constant: ASTTAPSVFPLAPSCGTTSGATVALACLVLGYFPEPVTVSWNSGALTSGVHTFPAVLQASGLYSLSSMVTVPSSRWLSDTFTCNVAHPPSNTKVDKTVRKTDHPPGPKPCDCPKCPPPEMLGGPSIFIFPPKPKDTLSISRTPEVTCLVVDLGPDDSDVQITWFVDNTQVYTAKTSPREEQFNSTYRVVSVLPILHQDWLKGKEFKCKVNSKSLPSPIERTISKAKGQPHEPQVYVLPPAQEELSRNKVSVTCLIKSFHPPDIAVEWEITGQPEPENNYRTTPPQLVSDGTYFVYSKLSVDRSHWQRGNTYTCSVSHEALHSHHTQKSLTQSPGK ?
2880
